What inhibition was measured for each of the following?
# ASSAYED_SYSTEM: Tyrosine-protein kinase JAK3 (Homo sapiens)
# SETTINGS: at 1 µM
# Description: GSK_PKIS: JAK3 mean inhibition at 1 uM [Nanosyn]
Numbers only, in %.

# COMPOUND, ASSAYED_SYSTEM, UNIT_TAG, REPORTED
measured = [
    ("CCCN1CCC(Oc2cc(Nc3nc(Nc4cccc(F)c4C(N)=O)c4cc[nH]c4n3)c(OC)cc2Cl)CC1", "Tyrosine-protein kinase JAK3 (Homo sapiens)", "%", 1.56),
    ("CS(=O)(=O)CCNCc1nc(-c2ccc3ncnc(Nc4ccc(F)c(Cl)c4)c3c2)cs1", "Tyrosine-protein kinase JAK3 (Homo sapiens)", "%", 3.43),
    ("Cc1ccc(C(=O)NC2CCCCC2)cc1-c1ccc(C(=O)NCC2CC2)cc1", "Tyrosine-protein kinase JAK3 (Homo sapiens)", "%", 3.02),
    ("NS(=O)(=O)c1ccc(N/N=C2\\C(=O)Nc3ccc(C(=O)NCCc4c[nH]cn4)cc32)cc1", "Tyrosine-protein kinase JAK3 (Homo sapiens)", "%", 3.43),
]

Take each entry in turn and give its inhibition.
1. Cn1cc(C=C2C(=O)Nc3cccnc32)c2ccccc21
2. O=C1NC(=O)C(c2ccccc2Cl)=C1Nc1cccc(O)c1
3. COc1cc(C=NNc2ncnc3c2cnn3-c2ccccc2)ccc1O
4. CS(=O)(=O)CCNCc1ccc(-c2ccc3ncnc(Nc4ccc(OCc5cccc(F)c5)c(C(F)(F)F)c4)c3c2)o1
5. N#Cc1c(NC(=O)c2cccc3ccccc23)sc2c1CCCC2

Result:
1: 4.53; 2: 21.8; 3: 4.39; 4: -0.15; 5: 1.51

Field inhibition (Tyrosine-protein kinase JAK3 (Homo sapiens)), entry CC1=C(C(=O)Nc2ccc3[nH]ncc3c2)C(c2ccc3ccccc3c2)CC(=O)N1 (stereo not given) : 30.9

---

# ASSAYED_SYSTEM: Dual specificity protein kinase CLK3 (Homo sapiens);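 further: each value is the mean inhibition of CLK3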
# SETTINGS: at 1 µM
OBSERVED_PROPERTY: inhibition (%)
Numbers only, in %.

Below, each entry is followed by its recorded inhibition result.
# COMPOUND, inhibition, %
measured = [
    ("COc1cc2ncn(-c3cc(OCc4ccccc4C(F)(F)F)c(C(N)=O)s3)c2cc1OC", -2.17),
    ("O=C1Nc2ccc(C(=O)c3ccco3)cc2C1=Cc1cc(Cl)c(O)c(Cl)c1", 63.8),
    ("CCn1c(-c2nonc2N)nc2ccncc21", 0.52),
    ("NS(=O)(=O)c1ccc(N/N=C2\\C(=O)Nc3ccc(C(=O)NCCc4c[nH]cn4)cc32)cc1", 24.2),
]

Next compound, inhibition to be filled in.
Looking up CC1=C(C(=O)Nc2ccc3[nH]ncc3c2)C(c2ccc(Cl)c(Cl)c2)CC(=O)N1 (stereo not given) , I found its inhibition recorded as 2.49

---

# Tested on: Mast/stem cell growth factor receptor Kit (Homo sapiens), P10721 [T670I]
# Sequence (P10721 whole entry T670I): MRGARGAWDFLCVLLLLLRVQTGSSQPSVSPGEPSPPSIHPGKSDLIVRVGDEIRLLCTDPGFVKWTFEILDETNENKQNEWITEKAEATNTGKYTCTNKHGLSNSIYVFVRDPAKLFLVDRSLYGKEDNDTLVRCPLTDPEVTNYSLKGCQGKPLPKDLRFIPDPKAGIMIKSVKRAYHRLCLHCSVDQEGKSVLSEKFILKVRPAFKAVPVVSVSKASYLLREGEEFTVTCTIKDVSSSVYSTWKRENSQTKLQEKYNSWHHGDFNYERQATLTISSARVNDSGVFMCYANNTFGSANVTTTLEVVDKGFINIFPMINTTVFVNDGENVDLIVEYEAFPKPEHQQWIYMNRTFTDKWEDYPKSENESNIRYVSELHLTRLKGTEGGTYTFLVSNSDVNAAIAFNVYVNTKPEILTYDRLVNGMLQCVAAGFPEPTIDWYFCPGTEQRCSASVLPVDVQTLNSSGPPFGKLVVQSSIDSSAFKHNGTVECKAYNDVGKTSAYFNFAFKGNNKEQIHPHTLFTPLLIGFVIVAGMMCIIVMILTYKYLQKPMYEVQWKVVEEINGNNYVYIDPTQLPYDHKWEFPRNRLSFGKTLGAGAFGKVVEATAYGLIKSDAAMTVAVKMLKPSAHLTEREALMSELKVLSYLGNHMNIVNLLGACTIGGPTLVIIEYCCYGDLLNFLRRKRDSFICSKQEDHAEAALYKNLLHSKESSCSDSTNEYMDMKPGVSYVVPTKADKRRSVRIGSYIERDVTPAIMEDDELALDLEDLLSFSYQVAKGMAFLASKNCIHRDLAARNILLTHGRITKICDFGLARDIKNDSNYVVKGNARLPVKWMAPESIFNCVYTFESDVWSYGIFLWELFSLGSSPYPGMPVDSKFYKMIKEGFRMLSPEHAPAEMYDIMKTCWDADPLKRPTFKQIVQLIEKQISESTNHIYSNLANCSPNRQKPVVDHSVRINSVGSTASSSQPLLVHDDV
# SETTINGS: at 1 µM
I'd be grateful if you could share measured inhibition for these entries.
Numbers only, in %.

# SMILES_REPR, UNIT_TAG, inhibition
data = [
    ("NC(=O)c1cccc(Nc2nccc(Nc3cccc4[nH]ncc34)n2)c1", "%", 4.51),
    ("COc1cc2c(cc1Nc1nc(N3CCc4ccccc43)c3cc[nH]c3n1)N(C(=O)CN(C)C)CC2", "%", 4.61),
    ("CC(=O)Nc1cccc(C#Cc2cncnc2Nc2ccc(OCc3cccc(F)c3)c(Cl)c2)n1", "%", 0.59),
    ("COC(=O)Nc1nc2cc(Oc3ccc(NC(=O)Nc4cccc(C(=O)O)c4)cc3)ccc2[nH]1", "%", 2.75),
    ("NS(=O)(=O)c1ccc(N/N=C2\\C(=O)Nc3ccc(C(=O)NCCc4c[nH]cn4)cc32)cc1", "%", 4),
]

# return inhibition for each item in the list
1. CN1CCC(C(=O)Nc2n[nH]c3nnc(-c4ccccc4)cc23)CC1
2. CCn1c(-c2nonc2N)nc2c(C#CC(C)(C)O)nc(CN3CCCC3)cc21
3. Fc1cccc(COc2ccc(Nc3ncnc4cc(-c5ccc[nH]5)sc34)cc2Cl)c1
4. Nc1ncnc2occ(-c3ccc(NC(=O)Nc4cccc(C(F)(F)F)c4)cc3)c12

Result:
5.4
-3.13
2.49
83.9

# credit: ChEMBL document CHEMBL1961873
